The measurements presented in this section are drawn from PubChem BioAssay AID1963844.

Test system: 422866-222-R5-J1-PDC complex spheroid viability
Test: Anticancer human tumor 422866-222-R5-J1-PDC patient-derived pancreatic adenocarcinoma cell line growth inhibition [POLQ]
Conditions: second compound 3.16 µM; first compound 3.16 µM; stronger effect = lower value
Description: Multicellular complex tumor spheroid response to Polymerase (POL) inhibitors (novobiocin, ART-558, RP6685) in combination with a variety of drugs and investigational agents in selected tumor cell lines The POL inhibitors (novobiocin, ART-558, and RP6685) were evaluated both individually and in combination with standard of care and investigational anticancer small molecules within a complex spheroid model of solid tumors. . […]
Doc: threshold 70% (exclusive). Items with viability, T/C beneath it return label 1; others return label 0.

- compound: "O=C(c1cc(Cc2n[nH]c(=O)c3ccccc23)ccc1F)N1CCN(C(=O)C2CC2)CC1 + Cc1cccc(N(C)C(=O)C2C(O)CCN2c2nc(C)cc(C(F)(F)F)c2C#N)c1"
  group_label: "label 0"
- compound: "CC1COCCN1c1cc(C2(S(C)(=N)=O)CC2)nc(-c2ccnc3[nH]ccc23)n1 (stereo unspecified) + Nc1ccc(C#CCN(C(=O)Cc2ncc(C(F)(F)F)cc2C(F)(F)F)c2ccc(F)cc2)nn1"
  group_label: "label 1"
- compound: "CC1COCCN1c1cc(C2(O)CC3CCC(C2)O3)c2cnn(-c3ccn[nH]3)c2n1 (stereo unspecified) + Nc1ccc(C#CCN(C(=O)Cc2ncc(C(F)(F)F)cc2C(F)(F)F)c2ccc(F)cc2)nn1"
  group_label: "label 1"
- compound: "O=c1[nH]cc(F)c(=O)[nH]1 + Nc1ccc(C#CCN(C(=O)Cc2ncc(C(F)(F)F)cc2C(F)(F)F)c2ccc(F)cc2)nn1"
  group_label: "label 0"
- compound: "O=C(Nc1ccc(O)c(NS(=O)(=O)c2ccc(F)cc2)c1)c1ccc(-c2ccccc2)cc1 + COC1C(OC(N)=O)C(O)C(Oc2ccc3c(O)c(NC(=O)c4ccc(O)c(CC=C(C)C)c4)c(=O)oc3c2C)OC1(C)C"
  group_label: "label 0"

====

Listing of entries alongside the reported viability, T/C.
System: 422866-222-R5-J1-PDC complex spheroid viability
Test: Anticancer human tumor 422866-222-R5-J1-PDC cell line growth inhibition [POLQ];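 note: spheroids exposed to compounds for one week before readout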;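 for viability, T/C: percent of DMSO vehicle wells luminescence so 100% = untreated viability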
Conditions: second compound 3.16 µM; first compound 3.16 µM; stronger effect = lower value
Method: Multicellular complex tumor spheroid response to Polymerase (POL) inhibitors (novobiocin, ART-558, RP6685) in combination with a variety of drugs and investigational agents in selected tumor cell lines The POL inhibitors (novobiocin, ART-558, and RP6685) were evaluated both individually and in combination with standard of care and investigational anticancer small molecules within a complex spheroid model of solid tumors. . […]
measured_property: viability, T/C (%)

- compound: "CCc1cc2c(N3CCc4c(cc(Cn5ccnc5)cc4-c4cn(C)nc4C(F)(F)F)C3=O)ccnc2c(OC)n1 + Nc1ccc(C#CCN(C(=O)Cc2ncc(C(F)(F)F)cc2C(F)(F)F)c2ccc(F)cc2)nn1"
  result_unit: "%"
  measured: 114
- compound: "Nc1ccn(C2OC(CO)C(O)C2(F)F)c(=O)n1 (stereo not drawn) + COC1C(OC(N)=O)C(O)C(Oc2ccc3c(O)c(NC(=O)c4ccc(O)c(CC=C(C)C)c4)c(=O)oc3c2C)OC1(C)C"
  result_unit: "%"
  measured: 34.5
- compound: "CCCS(=O)(=O)Nc1ccc(F)c(C(=O)c2c[nH]c3ncc(-c4ccc(Cl)cc4)cc23)c1F + Nc1ccc(C#CCN(C(=O)Cc2ncc(C(F)(F)F)cc2C(F)(F)F)c2ccc(F)cc2)nn1"
  result_unit: "%"
  measured: 153

====

Tested on: 422866-222-R5-J1-PDC complex spheroid viability
Assay: Anticancer human tumor 422866-222-R5-J1-PDC cell line growth inhibition [POLQ];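 note: spheroids exposed to compounds for one week before readout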
Settings: curve of first compound; second compound 0.316 µM
pIC50: −log10 of the molar value.
measured_property: pIC50

- compound: "C#Cc1c(F)ccc2cc(O)cc(-c3ncc4c(N5CC6CCC(C5)N6)nc(OCC56CCCN5CC(F)C6)nc4c3F)c12 (stereo not given) + Cc1cccc(N(C)C(=O)C2C(O)CCN2c2nc(C)cc(C(F)(F)F)c2C#N)c1"
  measured_property: "pIC50"
  measured: 6.12
- compound: "CC(C)n1c(=O)n(C)c2cnc3cc(F)c(-c4ccc(OCCCN5CCCCC5)nc4)cc3c21 + COC1C(OC(N)=O)C(O)C(Oc2ccc3c(O)c(NC(=O)c4ccc(O)c(CC=C(C)C)c4)c(=O)oc3c2C)OC1(C)C"
  measured_property: "pIC50"
  measured: "> 7.50"
- compound: "CNCc1ccc(-c2[nH]c3cc(F)cc4c3c2CCNC4=O)cc1 + Cc1cccc(N(C)C(=O)C2C(O)CCN2c2nc(C)cc(C(F)(F)F)c2C#N)c1"
  measured_property: "pIC50"
  measured: "< 5.00"
- compound: "CCc1cc2c(N3CCc4c(cc(Cn5ccnc5)cc4-c4cn(C)nc4C(F)(F)F)C3=O)cc(C)nc2c(OC)n1 + Nc1ccc(C#CCN(C(=O)Cc2ncc(C(F)(F)F)cc2C(F)(F)F)c2ccc(F)cc2)nn1"
  measured_property: "pIC50"
  measured: "< 5.00"
- compound: "CC(=O)O[C@H]1C(=O)[C@@]2(C)[C@H]([C@H](OC(=O)c3ccccc3)[C@]3(O)C[C@H](OC(=O)[C@H](O)[C@@H](NC(=O)c4ccccc4)c4ccccc4)C(C)=C1C3(C)C)[C@]1(OC(C)=O)CO[C@@H]1C[C@@H]2O + Cc1cccc(N(C)C(=O)C2C(O)CCN2c2nc(C)cc(C(F)(F)F)c2C#N)c1"
  measured_property: "pIC50"
  measured: "< 5.52"

====

Listed here: items and their measured viability, T/C.
Tested on: 422866-222-R5-J1-PDC complex spheroid viability
Assay: Anticancer human tumor 422866-222-R5-J1-PDC cell line growth inhibition [POLQ];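 note: spheroids exposed to compounds for one week before readout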;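 for viability, T/C: percent of DMSO vehicle wells luminescence so 100% = untreated viability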
Conditions: second compound 0.1 µM; first compound 0.1 µM; stronger effect = lower value

- molecule: "CC[C@@]1(O)C(=O)OCc2c1cc1n(c2=O)Cc2cc3c(CN(C)C)c(O)ccc3nc2-1 + Cc1cccc(N(C)C(=O)C2C(O)CCN2c2nc(C)cc(C(F)(F)F)c2C#N)c1"
  tgt: "422866-222-R5-J1-PDC complex spheroid viability"
  viability, T/C: "44.4%"
- molecule: "CCc1c2c(nc3ccc(O)cc13)-c1cc3c(c(=O)n1C2)COC(=O)[C@]3(O)CC + Cc1cccc(N(C)C(=O)C2C(O)CCN2c2nc(C)cc(C(F)(F)F)c2C#N)c1"
  tgt: "422866-222-R5-J1-PDC complex spheroid viability"
  viability, T/C: "34.8%"
- molecule: "O=C(c1cc(Cc2n[nH]c(=O)c3ccccc23)ccc1F)N1CCN(C(=O)C2CC2)CC1 + Nc1ccc(C#CCN(C(=O)Cc2ncc(C(F)(F)F)cc2C(F)(F)F)c2ccc(F)cc2)nn1"
  tgt: "422866-222-R5-J1-PDC complex spheroid viability"
  viability, T/C: "95.8%"

====

Measured IC50, listed per entry.
Tested on: 422866-222-R5-J1-PDC complex spheroid viability
Assay: Anticancer human tumor 422866-222-R5-J1-PDC cell line growth inhibition [POLQ];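 note: spheroids exposed to compounds for one week before readout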
Conditions: curve of first compound; second compound 1 µM
measured_property: IC50 (nM)

- compound: "CC[C@@]1(O)C(=O)OCc2c1cc1n(c2=O)Cc2cc3c(CN(C)C)c(O)ccc3nc2-1 + COC1C(OC(N)=O)C(O)C(Oc2ccc3c(O)c(NC(=O)c4ccc(O)c(CC=C(C)C)c4)c(=O)oc3c2C)OC1(C)C"
  qualifier_operator: "="
  measured: 20.7
- compound: "O=c1[nH]cc(F)c(=O)[nH]1 + Cc1cccc(N(C)C(=O)C2C(O)CCN2c2nc(C)cc(C(F)(F)F)c2C#N)c1"
  qualifier_operator: ">"
  measured: 10000
- compound: "COc1ccc([C@@H](O)c2cc(-c3ncnc4cc(N5CCOCC5)ccc34)c(F)cc2Cl)nn1 + Nc1ccc(C#CCN(C(=O)Cc2ncc(C(F)(F)F)cc2C(F)(F)F)c2ccc(F)cc2)nn1"
  qualifier_operator: "="
  measured: 1930
- compound: "C=CCn1c(=O)c2cnc(Nc3ccc(N4CCN(C)CC4)cc3)nc2n1-c1cccc(C(C)(C)O)n1 + COC1C(OC(N)=O)C(O)C(Oc2ccc3c(O)c(NC(=O)c4ccc(O)c(CC=C(C)C)c4)c(=O)oc3c2C)OC1(C)C"
  qualifier_operator: "="
  measured: 471
- compound: "O=c1[nH]cc(F)c(=O)[nH]1 + COC1C(OC(N)=O)C(O)C(Oc2ccc3c(O)c(NC(=O)c4ccc(O)c(CC=C(C)C)c4)c(=O)oc3c2C)OC1(C)C"
  qualifier_operator: ">"
  measured: 10000

====

Test system: 422866-222-R5-J1-PDC complex spheroid viability
Experiment: Anticancer human tumor 422866-222-R5-J1-PDC cell line growth inhibition [POLQ];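 note: spheroids exposed to compounds for one week before readout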;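 for viability, T/C: percent of DMSO vehicle wells luminescence so 100% = untreated viability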
Conditions: second compound 0.1 µM; first compound 10 µM; stronger effect = lower value
Note to self: viability, T/C under 40% means Condition met, ties and anything higher get Condition not met.

- compound: "O=C(Nc1ccc(O)c(NS(=O)(=O)c2ccc(F)cc2)c1)c1ccc(-c2ccccc2)cc1 + Nc1ccc(C#CCN(C(=O)Cc2ncc(C(F)(F)F)cc2C(F)(F)F)c2ccc(F)cc2)nn1"
  group_label: "Condition not met"
- compound: "C#Cc1c(F)ccc2cc(O)cc(-c3ncc4c(N5CC6CCC(C5)N6)nc(OCC56CCCN5CC(F)C6)nc4c3F)c12 (configuration not stated) + Nc1ccc(C#CCN(C(=O)Cc2ncc(C(F)(F)F)cc2C(F)(F)F)c2ccc(F)cc2)nn1"
  group_label: "Condition met"
- compound: "CC1COCCN1c1cc(C2(S(C)(=N)=O)CC2)nc(-c2ccnc3[nH]ccc23)n1 (configuration not stated) + Nc1ccc(C#CCN(C(=O)Cc2ncc(C(F)(F)F)cc2C(F)(F)F)c2ccc(F)cc2)nn1"
  group_label: "Condition not met"
- compound: "C#Cc1c(F)ccc2cc(O)cc(-c3ncc4c(N5CC6CCC(C5)N6)nc(OCC56CCCN5CC(F)C6)nc4c3F)c12 (configuration not stated) + Cc1cccc(N(C)C(=O)C2C(O)CCN2c2nc(C)cc(C(F)(F)F)c2C#N)c1"
  group_label: "Condition met"
- compound: "CNCc1ccc(-c2[nH]c3cc(F)cc4c3c2CCNC4=O)cc1 + Cc1cccc(N(C)C(=O)C2C(O)CCN2c2nc(C)cc(C(F)(F)F)c2C#N)c1"
  group_label: "Condition not met"
- compound: "O=C(c1cc(Cc2n[nH]c(=O)c3ccccc23)ccc1F)N1CCN(C(=O)C2CC2)CC1 + COC1C(OC(N)=O)C(O)C(Oc2ccc3c(O)c(NC(=O)c4ccc(O)c(CC=C(C)C)c4)c(=O)oc3c2C)OC1(C)C"
  group_label: "Condition met"
- compound: "COc1cccc2c1C(=O)c1c(O)c3c(c(O)c1C2=O)CC(O)(C(=O)CO)CC3OC1CC(N)C(O)C(C)O1 (configuration not stated) + Cc1cccc(N(C)C(=O)C2C(O)CCN2c2nc(C)cc(C(F)(F)F)c2C#N)c1"
  group_label: "Condition met"
